- Test system: MO-5
- Assay type: binding, mouse
Endpoint Label: reactivity ratio with morphine, MO-5

[[record]]
molecule = "CN1CC[C@]23c4c5ccc(O[C@@H]6O[C@H](C(=O)O)[C@@H](O)[C@H](O)[C@H]6O)c4O[C@H]2[C@@H](O)C=C[C@H]3[C@H]1C5 [M - 3 - G, morphine-3-glucronide]"
result_modifier = "="
value_observed = 0.5

[[record]]
molecule = "COC(=O)[C@H]1[C@@H](OC(=O)c2ccccc2)C[C@@H]2CC[C@H]1N2C"
result_modifier = "<"
value_observed = 0.001

[[record]]
molecule = "CCC(=O)C(CC(C)N(C)C)(c1ccccc1)c1ccccc1 (stereo not shown)"
result_modifier = "<"
value_observed = 0.001

[[record]]
molecule = "CN1CC[C@]23c4c5ccc(O)c4O[C@H]2[C@@H](O)C=C[C@H]3[C@H]1C5"
result_modifier = "="
value_observed = 100

[[record]]
molecule = "COc1ccc2c3c1O[C@H]1[C@@H](O)C=C[C@H]4[C@@H](C2)N(C)CC[C@@]341"
result_modifier = "<"
value_observed = 0.1

[[record]]
molecule = "CCOc1ccc2c3c1O[C@H]1[C@@H](O)C=C[C@H]4[C@@H](C2)N(C)CC[C@@]341"
result_modifier = "<"
value_observed = 0.01

[[record]]
molecule = "CN1CC[C@]23c4c5ccc(O)c4O[C@H]2[C@@H](O[C@@H]2O[C@H](C(=O)O)[C@@H](O)[C@H](O)[C@H]2O)C=C[C@H]3[C@H]1C5 [M - 6 - G, morphine-6-glucronide]"
result_modifier = "="
value_observed = 0.9


###

Recorded measurements of reactivity ratio with morphine, MO-6, one per entry
- Test system: MO-6
- Format: binding, mouse
Endpoint Label: reactivity ratio with morphine, MO-6

[[record]]
compound = "CN1CC[C@]23c4c5ccc(O[C@@H]6O[C@H](C(=O)O)[C@@H](O)[C@H](O)[C@H]6O)c4O[C@H]2[C@@H](O)C=C[C@H]3[C@H]1C5 [M - 3 - G, morphine-3-glucronide]"
endpoint_label = "reactivity ratio with morphine, MO-6"
value_observed = 0.3

[[record]]
compound = "COC(=O)[C@H]1[C@@H](OC(=O)c2ccccc2)C[C@@H]2CC[C@H]1N2C [Cocaine, cocaine]"
endpoint_label = "reactivity ratio with morphine, MO-6"
value_observed = "< 0.1"

[[record]]
compound = "CCOc1ccc2c3c1O[C@H]1[C@@H](O)C=C[C@H]4[C@@H](C2)N(C)CC[C@@]341 [Ethylmorphine, ethylmorphine]"
endpoint_label = "reactivity ratio with morphine, MO-6"
value_observed = "< 0.1"

[[record]]
compound = "CCC(=O)C(CC(C)N(C)C)(c1ccccc1)c1ccccc1 (stereo not shown) [Methadone, methadone]"
endpoint_label = "reactivity ratio with morphine, MO-6"
value_observed = "< 0.1"

[[record]]
compound = "COc1ccc2c3c1O[C@H]1[C@@H](O)C=C[C@H]4[C@@H](C2)N(C)CC[C@@]341 [Codeine, codeine]"
endpoint_label = "reactivity ratio with morphine, MO-6"
value_observed = "< 0.1"

[[record]]
compound = "CN1CC[C@]23c4c5ccc(O)c4O[C@H]2[C@@H](O)C=C[C@H]3[C@H]1C5 [Morphine, morphine]"
endpoint_label = "reactivity ratio with morphine, MO-6"
value_observed = 100

[[record]]
compound = "CN1CC[C@]23c4c5ccc(O)c4O[C@H]2[C@@H](O[C@@H]2O[C@H](C(=O)O)[C@@H](O)[C@H](O)[C@H]2O)C=C[C@H]3[C@H]1C5 [M - 6 - G, morphine-6-glucronide]"
endpoint_label = "reactivity ratio with morphine, MO-6"
value_observed = 1.0

